tested on: CEM cells HIV-1 protection, formazan growth assay; experiment: NCI AIDS Antiviral Assay; details: measured here: growth of uninfected CEM cells
pIC50: −log10 of the molar value.
Reported endpoint: pIC50

Example entries begin here.
Compound: COC[C@@H](N=Cc1ccc(OC)cc1)C(C)C
Reported endpoint: pIC50
Reported value: < 3.70
--
Compound: NC(N)=NS(=O)(=O)c1ccc(NC(=O)c2ccc3[nH]c4ccccc4c(=O)c3c2)cc1
Reported endpoint: pIC50
Reported value: < 3.70
--
Compound: COC[C@@H](N=CN1CCc2cc(OC)c(OC)cc2[C@@H]1C)C(C)(C)C
Reported endpoint: pIC50
Reported value: 3.31
--
Compound: Cc1ccc(N2CN(c3ccc(C)cc3)CC(C)(N)C2)cc1
Reported endpoint: pIC50
Reported value: 4.62
--
Compound: CC1(C)COC(c2cccc(C3=NC(C)(C)CO3)c2)=N1
Reported endpoint: pIC50
Reported value: < 3.70
--
Compound: COc1ccc2c(c1O)-c1c(O)cccc1CCN(C)CC2
Reported endpoint: pIC50
Reported value: < 3.70
--
Compound: COC(=O)c1nc(-c2ccc3c(n2)C(=O)C(N)=C(OC)C3=O)c(N)c(-c2ccc(OC)c(OC)c2O)c1C
Reported endpoint: pIC50
Reported value: 5.78
--
Compound: Cn1nc(-c2ccccc2)c(N=[N+]=[N-])cc1=O
Reported endpoint: pIC50
Reported value: < 3.70
--
Compound: S=P1(Oc2ccccc2)OCCO1
Reported endpoint: pIC50
Reported value: < 3.21
--
Compound: CC(C)S(=O)(=O)ON1C(=O)c2ccc([N+](=O)[O-])cc2C1=O
Reported endpoint: pIC50
Reported value: 4.74

What value of measured pIC50 is listed for Cc1nc2n[nH]c(N)c2nc1C ?
< 4.08

What value of measured pIC50 is listed for COc1ccc(C(CC(C)=O)c2c(O)c3ccccc3oc2=O)cc1OC (stereo not drawn) ?
< 3.70

* * *

Test system: CEM cells HIV-1 protection, formazan growth assay
Assay: NCI AIDS Antiviral Assay
Method: The ability of compounds to protect human CEM cells from HIV-1 infection is measured as a screen for new compounds capable of inhibiting the HIV virus. Five concentrations of drug were tested on uninfected and infected cells and cell growth was measured using a soluble formazan assay. […] Compounds that provided at least 50% protection were retested. Compounds that provided at least 50% protection on retest were listed as moderately active. […]
pEC50: −log10 of the molar value.
Reported endpoint: pEC50

Compound: O=C(O)c1c(Cl)c(Cl)c(Cl)c(Cl)c1-c1c2ccc(=O)cc-2oc2cc(O)ccc12
Assayed system: CEM cells HIV-1 protection, formazan growth assay
pEC50: 5.19

Okay, now this compound:
What value of measured pEC50 is listed for O=c1/c(=C\c2ccccc2)sc2n1C(c1ccccc1)C1(O)CCCCC1N=2 (stereo not given) ?
< 3.70

* * *

// reported EC50 per item
tested on: CEM cells HIV-1 protection, formazan growth assay; test: NCI AIDS Antiviral Assay
Where a SMILES comes first, the peptide text is derived from it.

Example entries begin here.
Compound: O=C1/C(=C/c2ccc(Cl)cc2)CCc2ccccc21
Reported value: > 19.5 µM
//
Compound: O=[N+]([O-])/C(C(Cl)=C(Cl)Cl)=C1\Nc2ccccc2O1
Reported value: > 200 µM
//
Compound: CC(C)CC(NC(=O)CNC(=O)C(CC(C)C)NC(=O)C(Cc1c[nH]cn1)NC(=O)C(CC(N)=O)NC(=O)C(C)NC(=O)C1CCCN1C(=O)C(Cc1ccc(O)cc1)NC(=O)C1CCCN1C(=O)C(C)NC(=O)C(CCC(=O)O)NC(=O)C(CC(=O)O)NC(=O)C(Cc1ccccc1)NC(=O)C(CC(N)=O)NC(=O)C(C)N)C(=O)O (stereo not drawn) (H-ANFDEAPYPANHLGL-OH; configuration not given here)
Reported value: > 38 µM
//
Compound: CN(C)c1ccc(NN=C2SC(=Nc3ccccc3)C(=Nc3ccccc3)S2)cc1
Reported value: > 200 µM
//
Compound: CCSSc1ccccc1C(=O)O
Reported value: > 200 µM
//
Compound: CCOC(=O)/C(=C\c1ccc(OC)cc1)C(C)=O
Reported value: > 275 µM

What value of measured EC50 is listed for O=[N+]([O-])c1cc2c(c([N+](=O)[O-])c1)NCc1ccccc1O2 ?
> 200 µM

What value of measured EC50 is listed for C[C@]12CC[C@H](OC3OC(CO)C(O)C(O)C3O)C[C@H]1CC[C@@H]1[C@@H]2CC[C@]2(C)[C@@H](C3=CCOC3=O)CC[C@]12O (stereo partly drawn) ?
> 100 µM

What value of measured EC50 is listed for Oc1[nH]c2ccccc2c1N=NC(=S)Nc1ccccc1Cl ?
> 200 µM

What value of measured EC50 is listed for CC(=O)NC1=NC(=O)/C(=C/c2ccc(/C=C3/C(=O)N=C(NC(C)=O)N3C)cc2)N1C ?
> 200 µM

What value of measured EC50 is listed for C=C=CP(=O)(c1ccccc1)c1ccccc1 ?
> 151 µM

What value of measured EC50 is listed for Nc1c(N=Nc2ccc(/C=C/c3ccc(N=Nc4cc(S(=O)(=O)O)c5ccccc5c4N)cc3S(=O)(=O)O)c(S(=O)(=O)O)c2)cc(S(=O)(=O)O)c2ccccc12 ?
8.71 µM

What value of measured EC50 is listed for CC(=C/c1ccccc1)/C=C1/SC(=S)N(C=C2C(=O)NC(=O)NC2=O)C1=O ?
> 200 µM

What value of measured EC50 is listed for O=C(Cc1ccccc1)NN1C(=O)C(Cl)C1c1ccc(Cl)cc1 (stereo not drawn) ?
> 102 µM

What value of measured EC50 is listed for CN(C)CCNC(=O)c1cccc2c(NCCN(C)C)c3ccccc3nc12 ?
> 20 µM

What value of measured EC50 is listed for O=C(CC(c1ccccc1)C(Sc1ccccc1)(Sc1ccccc1)Sc1ccccc1)c1ccccc1 (stereo not drawn) ?
> 100 µM

What value of measured EC50 is listed for CNc1ncnc2c1nc(NC1CCCC1)n2C1OC(CO)C(O)C1O (stereo not drawn) ?
> 200 µM

What value of measured EC50 is listed for O=C(O)C1=C(C(=O)O)C2CCC1C2 ?
> 200 µM
